Test system: HeLa cells
Test: Cytotoxicity in HeLa cells, ATP content measured with the ATPlite kit
Type: cell-based
reported_property: TOX HELA pCC50

Take a look at these entries with their results.
| compound | study_target | TOX HELA pCC50 |
| --- | --- | --- |
| CCc1cc(C(=O)N2CCn3nccc3C2C)nc2cc(-c3ccc(C(N)=O)cc3F)nn12 (stereo not drawn) | HeLa cells | <4.60 |
| CNc1cc(C(=O)N2CCc3ccccc3C2C)nc2cc(-c3ccc(/C=C/C(=O)O)cc3F)nn12 (stereo not drawn) | HeLa cells | <4.60 |
| CCc1cc(C(=O)N2CCCCC[C@H]2C)nc2cc(-c3ccc(/C=C/C(=O)O)cc3F)nn12 | HeLa cells | <4.60 |
| CCc1cc(C(=O)N2CCCCCC2C)nc2cc(-c3ccc(N(C)C)cc3)nn12 (stereo not drawn) | HeLa cells | <4.60 |
| CCc1cc(C(=O)N2CCc3ccccc3C2C)nc2cc(-c3cc4cccnc4cc3F)nn12 (stereo not drawn) | HeLa cells | <4.60 |

Prompt line: Which TOX HELA pCC50 is listed for C[C@@H]1CCCCCN1C(=O)c1cc(N(C)C)n2nc(-c3ccc(/C=C/C(=O)O)cc3F)cc2n1 ?
Response line: <4.60

Prompt line: Requested read-out: TOX HELA pCC50. Entry: CN1CCCCCN1C(=O)c1cc(C2(C)CC2)n2nc(-c3cccc(/C=C/C(=O)O)c3F)cc2n1
Response line: <4

Prompt line: Bench note: what TOX HELA pCC50 did CCc1cc(C(=O)N2CCn3cccc3C2C)nc2cc(-c3cccc(/C=C/C(=O)O)c3F)nn12 (stereo not drawn) show?
Response line: <4

Prompt line: What measured TOX HELA pCC50 goes with CCc1cc(C(=O)N2CCCCC[C@H]2C)nc2cc(-c3ccc(OC)c(/C=C/C(=O)O)c3F)nn12 ?
Response line: <4

---

Each entry below carries its reported melting point.

| compound | melting point |
| --- | --- |
| CCc1cc(C(=O)N2CCCCCC2C)nc2cc(-c3ccc(NC(=O)OCC4CCCN4C)cc3F)nn12 (stereo not shown) | 165 to 170 °C |
| CCc1cc(C(=O)N2CCCCCC2C)nc2cc(-c3ccc(N/C(=N/C#N)NCC4CCCO4)cc3F)nn12 (stereo not shown) | 160 to 165 °C |
| CCCC(C)N(C)C(=O)c1cc(CC)n2nc(-c3ccc(NC(=O)NCC4CCCO4)cc3F)cc2n1 (stereo not shown) | 180 to 185 °C |

Prompt line: I am curious: what melting point value has been reported for CCc1cc(C(=O)N2CCCCCC2C)nc2cc(-c3ccc(NC(=O)CCC(=O)NC)cc3F)nn12 (stereo not shown) ?
Response line: 215 to 220 °C

---

Reported melting point values for the following compounds.

Prompt line: Item CCc1cc(C(=O)N2CCCCCC2C)nc2cc(-c3ccc(N/C(=N/C#N)NC4CC4)cc3F)nn12 (stereo not shown) has what recorded melting point?
Response line: 225 to 230 °C

Prompt line: Which measured melting point value corresponds to CC1CCCCCN1C(=O)c1cc(N2CCCC2)n2nc(-c3ccc(NC(=O)NCC4CCCO4)cc3)cc2n1 (stereo not shown) ?
Response line: 228 to 230 °C

Prompt line: melting point for CC1CCCCCN1C(=O)c1cc(N(C)C2CCCCC2)n2nc(-c3ccc(NC(=O)NCC4CCCO4)cc3)cc2n1 (stereo not shown) ?
Response line: 181 to 182 °C

Prompt line: melting point for CCc1cc(C(=O)N2CCCCCC2C)nc2cc(-c3ccc(C(N)=O)cc3)nn12 (stereo not shown) ?
Response line: 155 to 160 °C

FYI, the data here is from patent US11084826B2.
